IC50 listing for selected compounds.
- TARGET_DESC: Human Factor XIIa (Homo sapiens, UniProt P00748)
- Sequence (P00748 373-615 limits assumed): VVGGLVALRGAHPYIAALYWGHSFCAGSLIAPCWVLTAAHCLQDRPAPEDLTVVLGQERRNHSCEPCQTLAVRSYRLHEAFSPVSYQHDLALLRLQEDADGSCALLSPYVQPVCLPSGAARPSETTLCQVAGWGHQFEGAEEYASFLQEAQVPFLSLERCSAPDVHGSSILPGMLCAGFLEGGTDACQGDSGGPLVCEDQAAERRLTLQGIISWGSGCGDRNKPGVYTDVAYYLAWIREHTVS

A selection of reference data follows.
| STRUCTURE_NOTATION | TARGET_DESC | RESULT |
| --- | --- | --- |
| CN1CCC(COc2ccc(NCc3ccc4c(N)nccc4c3)cc2CO)CC1 | Human Factor XIIa (Homo sapiens, UniProt P00748) | < 1 µM |
| CN1CCN(C(=O)c2ccnc(NCc3ccc4c(N)nccc4c3)c2)CC1 | Human Factor XIIa (Homo sapiens, UniProt P00748) | 10 to 40 µM |
| CN1CCC(Oc2cnc(NCc3ccc4c(N)nccc4c3)nc2)CC1 | Human Factor XIIa (Homo sapiens, UniProt P00748) | 10 to 40 µM |
| CN1CCC(Oc2ccc(NCc3ccc4c(N)nccc4c3)cc2)CC1 | Human Factor XIIa (Homo sapiens, UniProt P00748) | < 1 µM |

Record for CN1CCC(Oc2cc(NCc3ccc4c(N)nccc4c3)ncn2)CC1 under target or system Human Factor XIIa (Homo sapiens, UniProt P00748): IC50 reported as 1 to 3 µM

Record for CN1CCC(Oc2ccc(NCc3ccc4c(N)nccc4c3)nc2)CC1 under target or system Human Factor XIIa (Homo sapiens, UniProt P00748): IC50 reported as 1 to 3 µM

###

- TARGET_DESC: Human Factor XIIa (Homo sapiens, UniProt P00748)
MEASUREMENT_KIND: IC50

A selection of reference data follows.
| COMPOUND | IC50 |
| --- | --- |
| CN1CCC(COc2ccc(NCc3ccc4c(N)nccc4c3)cc2)CC1 [Example 18.18] | < 1 µM |
| CN1CCC(COc2ccc(NCc3ccc4c(N)nccc4c3)nc2)CC1 [Example 18.04] | < 1 µM |
| CN1CCC(CNC(=O)c2cccc(NCc3ccc4c(N)nccc4c3)n2)CC1 [Example 18.201] | 3 to 10 µM |
| CN1CCC(OCc2ccnc(NCc3ccc4c(N)nccc4c3)c2)CC1 [Example 18.206] | 1 to 3 µM |

Record for CN1CCC(Oc2cccc(NCc3ccc4c(N)nccc4c3)n2)CC1 [Example 18.203] under target or system Human Factor XIIa (Homo sapiens, UniProt P00748): IC50 reported as 10 to 40 µM

###

IC50 listing for selected molecules.
- TARGET_DESC: Human Factor XIIa (Homo sapiens)
- Sequence (P00748 373-615 limits assumed): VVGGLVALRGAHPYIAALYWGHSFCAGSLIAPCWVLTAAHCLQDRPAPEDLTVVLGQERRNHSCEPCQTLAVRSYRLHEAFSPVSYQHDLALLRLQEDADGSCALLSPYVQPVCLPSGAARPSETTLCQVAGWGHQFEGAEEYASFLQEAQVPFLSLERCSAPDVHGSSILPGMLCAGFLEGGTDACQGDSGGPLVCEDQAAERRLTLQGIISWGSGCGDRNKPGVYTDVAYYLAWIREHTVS

| MOLECULE | TARGET_DESC | IC50 |
| --- | --- | --- |
| CN1CCC(Oc2cnc(NCc3ccc4c(N)nccc4c3)cn2)CC1 [Example 18.05] | Human Factor XIIa (Homo sapiens) | < 1 µM |

# IC50 of Nc1nccc2cc(CNc3cc(OCCN4CCOCC4)ccn3)ccc12 [Example 18.208] = 10 to 40 µM

# IC50 of CN1CCC(Oc2ccc(NCc3ccc4c(N)nccc4c3)nn2)CC1 [Example 18.06] = 1 to 3 µM
